Test system: RARg:RXRa (NR concentration 270 nM, RXRa partner concentration 90 nM)
TEST_SUMMARY: PBM binding z-score (relative to random genomic background probes); higher = stronger binding; sequences stand for … in GC…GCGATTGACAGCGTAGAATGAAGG
# if value of PBM binding z-score reaches 4, tag y; if it stays below, tag n

Decide: is the reported value of PBM binding z-score for `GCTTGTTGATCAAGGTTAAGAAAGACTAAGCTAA` equal to or greater than 4? n

Decide: is the reported value of PBM binding z-score for `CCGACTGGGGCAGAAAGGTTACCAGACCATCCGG` equal to or greater than 4? n

Decide: is the reported value of PBM binding z-score for `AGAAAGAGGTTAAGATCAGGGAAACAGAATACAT` equal to or greater than 4? n

Decide: is the reported value of PBM binding z-score for `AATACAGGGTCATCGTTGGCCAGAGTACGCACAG` equal to or greater than 4? y

Decide: is the reported value of PBM binding z-score for `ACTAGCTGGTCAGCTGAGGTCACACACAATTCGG` equal to or greater than 4? y

Decide: is the reported value of PBM binding z-score for `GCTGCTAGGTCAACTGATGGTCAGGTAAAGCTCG` equal to or greater than 4? y

Decide: is the reported value of PBM binding z-score for `TATACAGGGTCAAAGGCCAGAGTTCGAATGTCGA` equal to or greater than 4? y

Decide: is the reported value of PBM binding z-score for `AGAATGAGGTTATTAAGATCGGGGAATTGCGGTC` equal to or greater than 4? n

Decide: is the reported value of PBM binding z-score for `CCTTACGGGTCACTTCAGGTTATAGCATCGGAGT` equal to or greater than 4? y

Decide: is the reported value of PBM binding z-score for `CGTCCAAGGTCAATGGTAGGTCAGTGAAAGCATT` equal to or greater than 4? y

Decide: is the reported value of PBM binding z-score for `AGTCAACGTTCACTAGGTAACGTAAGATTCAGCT` equal to or greater than 4? n

Decide: is the reported value of PBM binding z-score for `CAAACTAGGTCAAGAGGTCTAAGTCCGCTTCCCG` equal to or greater than 4? y

Decide: is the reported value of PBM binding z-score for `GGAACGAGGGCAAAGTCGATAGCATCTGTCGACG` equal to or greater than 4? n

Decide: is the reported value of PBM binding z-score for `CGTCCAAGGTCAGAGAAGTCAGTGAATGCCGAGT` equal to or greater than 4? y

Decide: is the reported value of PBM binding z-score for `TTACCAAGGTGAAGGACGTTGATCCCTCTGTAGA` equal to or greater than 4? n

Decide: is the reported value of PBM binding z-score for `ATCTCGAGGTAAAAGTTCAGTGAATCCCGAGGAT` equal to or greater than 4? n

Decide: is the reported value of PBM binding z-score for `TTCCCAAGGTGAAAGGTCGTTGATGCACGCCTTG` equal to or greater than 4? y

Decide: is the reported value of PBM binding z-score for `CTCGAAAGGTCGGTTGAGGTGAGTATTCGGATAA` equal to or greater than 4? n

Decide: is the reported value of PBM binding z-score for `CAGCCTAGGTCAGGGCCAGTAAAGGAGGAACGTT` equal to or greater than 4? n

Decide: is the reported value of PBM binding z-score for `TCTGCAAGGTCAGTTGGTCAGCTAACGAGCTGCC` equal to or greater than 4? y

Decide: is the reported value of PBM binding z-score for `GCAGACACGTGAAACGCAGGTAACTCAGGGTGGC` equal to or greater than 4? n

Decide: is the reported value of PBM binding z-score for `CGAACTAGGTCAAGGACAGTCAATCTCCGCACGC` equal to or greater than 4? n

Decide: is the reported value of PBM binding z-score for `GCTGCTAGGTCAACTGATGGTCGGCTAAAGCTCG` equal to or greater than 4? y

Decide: is the reported value of PBM binding z-score for `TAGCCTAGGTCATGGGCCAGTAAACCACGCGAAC` equal to or greater than 4? y

Decide: is the reported value of PBM binding z-score for `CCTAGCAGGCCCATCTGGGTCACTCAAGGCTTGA` equal to or greater than 4? n

Decide: is the reported value of PBM binding z-score for `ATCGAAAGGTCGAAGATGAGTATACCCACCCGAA` equal to or greater than 4? n

Decide: is the reported value of PBM binding z-score for `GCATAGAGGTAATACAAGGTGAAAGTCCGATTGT` equal to or greater than 4? n

Decide: is the reported value of PBM binding z-score for `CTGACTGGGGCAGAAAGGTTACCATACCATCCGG` equal to or greater than 4? n

Decide: is the reported value of PBM binding z-score for `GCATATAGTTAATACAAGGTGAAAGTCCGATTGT` equal to or greater than 4? n

Decide: is the reported value of PBM binding z-score for `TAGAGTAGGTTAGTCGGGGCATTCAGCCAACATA` equal to or greater than 4? n

Decide: is the reported value of PBM binding z-score for `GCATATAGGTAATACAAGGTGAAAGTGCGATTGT` equal to or greater than 4? n

Decide: is the reported value of PBM binding z-score for `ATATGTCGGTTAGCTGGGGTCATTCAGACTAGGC` equal to or greater than 4? n

Decide: is the reported value of PBM binding z-score for `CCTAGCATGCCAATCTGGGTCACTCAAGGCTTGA` equal to or greater than 4? n

Decide: is the reported value of PBM binding z-score for `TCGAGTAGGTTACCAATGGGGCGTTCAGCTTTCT` equal to or greater than 4? n

Decide: is the reported value of PBM binding z-score for `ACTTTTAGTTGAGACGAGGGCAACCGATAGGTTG` equal to or greater than 4? n

Decide: is the reported value of PBM binding z-score for `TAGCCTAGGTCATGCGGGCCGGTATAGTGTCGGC` equal to or greater than 4? n

Decide: is the reported value of PBM binding z-score for `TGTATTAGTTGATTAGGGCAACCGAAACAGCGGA` equal to or greater than 4? n

Decide: is the reported value of PBM binding z-score for `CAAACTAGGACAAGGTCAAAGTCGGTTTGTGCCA` equal to or greater than 4? y

Decide: is the reported value of PBM binding z-score for `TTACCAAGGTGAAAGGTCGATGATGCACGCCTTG` equal to or greater than 4? n

Decide: is the reported value of PBM binding z-score for `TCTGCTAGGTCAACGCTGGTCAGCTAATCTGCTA` equal to or greater than 4? y

Decide: is the reported value of PBM binding z-score for `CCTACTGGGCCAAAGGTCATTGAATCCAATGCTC` equal to or greater than 4? y

Decide: is the reported value of PBM binding z-score for `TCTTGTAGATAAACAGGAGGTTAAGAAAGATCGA` equal to or greater than 4? n

Decide: is the reported value of PBM binding z-score for `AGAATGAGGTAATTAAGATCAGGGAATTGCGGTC` equal to or greater than 4? n

Decide: is the reported value of PBM binding z-score for `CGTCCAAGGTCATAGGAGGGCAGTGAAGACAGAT` equal to or greater than 4? y

Decide: is the reported value of PBM binding z-score for `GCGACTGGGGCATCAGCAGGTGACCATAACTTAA` equal to or greater than 4? n

Decide: is the reported value of PBM binding z-score for `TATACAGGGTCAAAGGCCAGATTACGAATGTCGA` equal to or greater than 4? y

Decide: is the reported value of PBM binding z-score for `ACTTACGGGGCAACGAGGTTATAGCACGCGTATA` equal to or greater than 4? n

Decide: is the reported value of PBM binding z-score for `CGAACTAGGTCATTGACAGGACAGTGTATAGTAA` equal to or greater than 4? y

Value source: the supplement of paper PMC6555819
